# protocol: small-molecule microarray binders of probe aXIP, primary screen, biochemical, NeuroSMM set, 635/667 nm fluorescence (AID 1119);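 further: probe is the protein aXip251-270 applied at 1 µg/mL to compound-printed slides; binding of probe to printed compounds measured as 667 nm fluorescence plus signal to noise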
# conditionParameters: higher = more signal, called active from +8 up or from −8 down
reportedProperty: composite Z-score
Hey, just send me the number, nothing else.

Recorded results for 8 compounds are shown here.
[
  {
    "compound": "C=C[C@H](CO[Si](CC)(CC)CC)N(Cc1ccc(OC(C)=O)c(OC)c1)S(=O)(=O)c1ccc(Br)cc1",
    "composite Z-score": 0.646
  },
  {
    "compound": "C=C(CCCC)C(=O)CC[C@@H](OC(=O)c1ccccc1-c1ccccc1C(=O)O)c1ccc(OCCO)cc1",
    "composite Z-score": 0.0426
  },
  {
    "compound": "CC(C)(C)OC(=O)CC[C@]1(C(=O)N2CCOCC2)N=C(c2ccc(OCCCO)cc2)O[C@H]1c1ccccc1N=[N+]=[N-]",
    "composite Z-score": 0.103
  },
  {
    "compound": "C[N+](C)(C)CCCC[C@@H]1NC(=O)[C@H]2C[C@@H](C(=O)NCCCCCCNC(=O)CS)[C@@H](c3cccc(OCCO)c3)N2C1=O",
    "composite Z-score": 3.4
  },
  {
    "compound": "O=C(NCCN1CCOCC1)C1N=C(c2ccc(OCCCO)cc2)N(c2ccccc2)O1 (centres undefined)",
    "composite Z-score": 0.267
  },
  {
    "compound": "CCOC(=O)[C@H]1C/C=C/C[C@H](C(=O)OCC)C(=O)O[C@H]2[C@@H](OC)O[C@H](CO)[C@@H](OC(=O)c3c(OC)cccc3OC)[C@@H]2OC1=O",
    "composite Z-score": 0.338
  },
  {
    "compound": "CO[C@H]1O[C@H](CO)[C@@H](OC(=O)Nc2ccccc2)[C@H](OC(=O)Nc2ccccc2)[C@@H]1OC(=O)Nc1ccccc1",
    "composite Z-score": -0.0073
  },
  {
    "compound": "CCC[C@@H]1C[C@@]1(CCC)[C@@H](NS(=O)(=O)c1cccc2cccnc12)c1ccc(Cl)cc1",
    "composite Z-score": -0.421
  }
]

Ask | Entry COC(=O)[C@@]1(Cc2ccc(F)cc2)[C@H]2c3cc(C(=O)N(C)C)n(Cc4ccccc4)c3C[C@H]2CN1C(=O)c1ccccc1 has what composite Z-score?
Reply | 0.0843

Ask | For CC(C)CNC(=O)[C@@]1(Cc2ccccc2I)c2ccccc2C(=O)N(C2CCCCC2)[C@H]1c1ccc(CO)cc1 , what is its reported composite Z-score?
Reply | 2.21

Ask | What does the data say about its composite Z-score? Entry: O=C(CS)NCCCCCCNC(=O)[C@@H]1C[C@@H]2C(=O)NCC(=O)N2[C@@H]1c1cccc(OCCO)c1
Reply | 0.359

Ask | Quick one: composite Z-score of COCCOC(=O)N1C(=O)[C@@]2(c3cc(C#Cc4ccc(OC)cc4)ccc31)[C@H](c1ccc(O)cc1)N1[C@H](c3ccccc3)[C@H](c3ccccc3)OC(=O)[C@H]1[C@@H]2C(=O)N1CCc2cc(OC)c(OC)cc2C1 ?
Reply | 0.536

Ask | Which composite Z-score is reported for this compound? COc1ccc([Si](C)(C)[C@@H]2[C@@H](CC(=O)N3CCC[C@H]3CO)O[C@]3(C(=O)N(c4ccccc4)c4ccccc43)[C@H]2C)cc1
Reply | 0.723

Ask | Find the recorded composite Z-score belonging to CCOC(=O)C[C@H]1[C@H](OC(=O)c2cc3ccccc3oc2=O)[C@@H](NC(=O)c2ccccc2)c2cc(OCCCO)ccc2N1C(=O)c1ccc2ccccc2n1 and report it.
Reply | 0.315
